System: CP265
Test: qHTS profiling for inhibitors of Plasmodium falciparum proliferation (AID 504749); further: nearly all actives have a fitted effect of over 60% in size
Settings: P. falciparum in erythrocytes, SYBR Green DNA, 72 h; series mostly up to 12.8 µM
Records with an inconclusive call do not appear. The source made the active and inactive calls. The call rests on the fitted dose curve; in most records, active means well fitted inhibition curve with a large enough effect; inconclusive means small, poorly fitted or top-dose-only effect; inactive means flat fitted curve, though single readings scatter.
I would appreciate it if you answered using one of these outcomes: true for active, false for inactive

>>> df
                                test_smiles  experimental_system  qualitative_label
0  CN(C)[C@@H]1C(=O)C(C(N)=O)=C(O)[C@]2(O)C(=O)C3=C(O)c4c(O)ccc(Cl)c4[C@H](O)[C@H]3C[C@@H]12                CP265              false
1  CCN[C@@H]1C[C@H](C)S(=O)(=O)c2sc(S(N)(=O)=O)cc21                CP265              false
2  C[C@@H]1c2cccc(O)c2C(O)=C2C(=O)[C@@]3(O)C(O)=C(C(N)=O)C(=O)[C@@H](N(C)C)[C@@H]3[C@@H](O)[C@@H]21                CP265              false
3                     CC[C@]1(C)CC(=O)NC1=O                CP265              false
4        N[C@@H](CO)C(=O)NNCc1ccc(O)c(O)c1O                CP265              false
5              CC(=O)O[C@@H](C)C[N+](C)(C)C                CP265              false

[ask] Would you mind telling me which call this test gave CC1(C)O[C@@H]2C[C@H]3[C@H]4C[C@H](F)C5=CC(=O)C=C[C@@]5(C)[C@@H]4[C@H](O)C[C@]3(C)[C@]2(C(=O)CO)O1 ?
[reply] false

[ask] Could you kindly confirm the outcome this assay logged for Cc1cc(/C=C\c2ccc3cc(N(C)C)ccc3[n+]2C)c(C)n1-c1ccccc1 ?
[reply] true

[ask] Please share the test call associated with CCCN(CCC)C(=O)[C@@H](CCC(=O)O)NC(=O)c1ccccc1 .
[reply] false

[ask] Check the results log: what was the call for COc1ccccc1OC[C@H](O)COC(N)=O ?
[reply] false

[ask] Hi, sorry to bother you, what did the test record for CN(N=O)C(=O)N[C@H]1[C@@H](O)[C@H](O)[C@H](CO)O[C@@H]1O ?
[reply] false
